- System: Bordetella pertussis induced edema
- Assay summary: antiinflammatory activity: Bordetella pertussis induced edema test
- Format: in vivo
- Assay setup: in Rattus norvegicus, po, 24 h, read-out: reduce the edema after 24 hours
// values below are reported inhibition in vivo at 500 µM, 500 µmol/kg
Property label: inhibition in vivo at 500 µM, 500 µmol/kg (%)

In [3]: df
Out[3]:
                                   compound                                 tgt  value_reported
0  CC(SC(=O)c1cccs1)C(=O)NCC(=O)NC1CCSC1=O (racemic) [Compound III]  Bordetella pertussis induced edema            41.8
1  CC(=O)N[C@@H](CS)C(=O)O [N-acetyl-cysteine, reference compound]  Bordetella pertussis induced edema            23.2
2  CC(=O)N[C@@H](CS)C(=O)N[C@H]1CCSC1=O [Compound IV]  Bordetella pertussis induced edema            36.7
3  CC(S)C(=O)NCC(=O)O (stereo not drawn) [tiopronin, reference compound]  Bordetella pertussis induced edema            28.6
4  CC(SC(=O)c1cccs1)C(=O)NCC(=O)N1CSC[C@H]1C(=O)NC1CCSC1=O (stereo partly drawn) [Compound VIII]  Bordetella pertussis induced edema            38.1
5  CC(=O)N[C@@H](CSC(=O)c1cccs1)C(=O)NC1CCSC1=O (stereo partly drawn) [Compound V]  Bordetella pertussis induced edema            35.8
